Test system: MCF10A
Test: percent viability (nuclei count relative to siNT); higher = more viable cells
Conditions: 20 nM; 72 h
PARAMETER: percent viability

{"SEQUENCE RECORD": "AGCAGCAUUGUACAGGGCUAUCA [hsa-miR-107]", "PARAMETER": "percent viability", "RESULT": "22.7%"}
{"SEQUENCE RECORD": "ACCGCCUGCCCAGUGA [hsa-miR-4485-5p]", "PARAMETER": "percent viability", "RESULT": "70.4%"}
{"SEQUENCE RECORD": "CUGUACAGGCCACUGCCUUGC [hsa-let-7g-3p]", "PARAMETER": "percent viability", "RESULT": "55.1%"}
{"SEQUENCE RECORD": "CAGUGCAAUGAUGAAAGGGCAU [hsa-miR-130b-3p]", "PARAMETER": "percent viability", "RESULT": "77%"}
{"SEQUENCE RECORD": "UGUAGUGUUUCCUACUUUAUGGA [hsa-miR-142-3p]", "PARAMETER": "percent viability", "RESULT": "82.8%"}
{"SEQUENCE RECORD": "UGCGGCCGGUGCUCAACCUGC [hsa-miR-1199-3p]", "PARAMETER": "percent viability", "RESULT": "22.1%"}
{"SEQUENCE RECORD": "CAAAAACUGCAAUUACUUUCA [hsa-miR-548ae]", "PARAMETER": "percent viability", "RESULT": "153%"}
{"SEQUENCE RECORD": "GUGCAAAAGUCAUCACGGUU [hsa-miR-548aw]", "PARAMETER": "percent viability", "RESULT": "57.6%"}
{"SEQUENCE RECORD": "AAUCAGUGAAUGCCUUGAACCU [hsa-miR-5094]", "PARAMETER": "percent viability", "RESULT": "63.5%"}
{"SEQUENCE RECORD": "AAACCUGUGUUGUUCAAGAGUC [hsa-miR-649]", "PARAMETER": "percent viability", "RESULT": "113%"}
{"SEQUENCE RECORD": "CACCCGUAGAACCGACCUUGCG [hsa-miR-99b-5p]", "PARAMETER": "percent viability", "RESULT": "62.9%"}
{"SEQUENCE RECORD": "UGGUGGAGGAAGAGGGCAGCUC [hsa-miR-6880-5p]", "PARAMETER": "percent viability", "RESULT": "3.74%"}
{"SEQUENCE RECORD": "AGUGGAUGAUGGAGACUCGGUAC [hsa-miR-3691-5p]", "PARAMETER": "percent viability", "RESULT": "13.1%"}
{"SEQUENCE RECORD": "CGAAUCAUUAUUUGCUGCUCUA [hsa-miR-15b-3p]", "PARAMETER": "percent viability", "RESULT": "131%"}
{"SEQUENCE RECORD": "AAGGAACCAGAAAAUGAGAAGU [hsa-miR-3914]", "PARAMETER": "percent viability", "RESULT": "111%"}
{"SEQUENCE RECORD": "ACAGACUUGCUGUGAUGUUCA [hsa-miR-499b-5p]", "PARAMETER": "percent viability", "RESULT": "35.2%"}
{"SEQUENCE RECORD": "GCAGUAGUGUAGAGAUUGGUUU [hsa-miR-3129-5p]", "PARAMETER": "percent viability", "RESULT": "40.7%"}
{"SEQUENCE RECORD": "CUGGUACAGGCCUGGGGGACAG [hsa-miR-150-3p]", "PARAMETER": "percent viability", "RESULT": "66.2%"}
{"SEQUENCE RECORD": "ACUGGCAUUAGUGGGACUUUU [hsa-miR-5588-5p]", "PARAMETER": "percent viability", "RESULT": "46.1%"}
{"SEQUENCE RECORD": "AUAUACAGGGGGAGACUCUCAU [hsa-miR-1185-2-3p]", "PARAMETER": "percent viability", "RESULT": "25.8%"}
{"SEQUENCE RECORD": "UUACACACAACUGAGGAUCAUA [hsa-miR-3941]", "PARAMETER": "percent viability", "RESULT": "16.8%"}
{"SEQUENCE RECORD": "UUUCCUGUCCUCCAACCAGACC [hsa-miR-7152-5p]", "PARAMETER": "percent viability", "RESULT": "26.5%"}
{"SEQUENCE RECORD": "GGUGAGGCUAGCUGGUG [hsa-miR-4316]", "PARAMETER": "percent viability", "RESULT": "41.7%"}
{"SEQUENCE RECORD": "UUGCUUGAACCCAGGAAGUGGA [hsa-miR-1273e]", "PARAMETER": "percent viability", "RESULT": "29%"}

====

System: MCF10A
Experiment: one-nucleolus phenotype percent effect (relative to siNT 0% and siNOL11 100%); higher = more cells with one nucleolus (ribosome biogenesis inhibition)
Settings: 20 nM; 72 h
PARAMETER: one-nucleolus phenotype percent effect (%)

{"SEQUENCE RECORD": "CACAUUACACGGUCGACCUCU [hsa-miR-323a-3p]", "TARGET SYSTEM": "MCF10A", "READOUT NUMBER": 12.4}
{"SEQUENCE RECORD": "GAAGAUGGACGUACUUU [hsa-miR-4426]", "TARGET SYSTEM": "MCF10A", "READOUT NUMBER": 31.4}
{"SEQUENCE RECORD": "CAGGGCAGGAAGAAGUGGACAA [hsa-miR-4436b-3p]", "TARGET SYSTEM": "MCF10A", "READOUT NUMBER": 31.7}
{"SEQUENCE RECORD": "ACUCGGCGUGGCGUCGGUCGUG [hsa-miR-1307-3p]", "TARGET SYSTEM": "MCF10A", "READOUT NUMBER": 66.2}
{"SEQUENCE RECORD": "ACGGGUUAGGCUCUUGGGAGCU [hsa-miR-125b-1-3p]", "TARGET SYSTEM": "MCF10A", "READOUT NUMBER": 13.6}
{"SEQUENCE RECORD": "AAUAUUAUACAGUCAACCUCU [hsa-miR-656]", "TARGET SYSTEM": "MCF10A", "READOUT NUMBER": 3.93}
{"SEQUENCE RECORD": "CAGUUCUGCUGUUCUGACUCUAG [hsa-miR-6874-3p]", "TARGET SYSTEM": "MCF10A", "READOUT NUMBER": -4.11}
{"SEQUENCE RECORD": "GCCUGCUGGGGUGGAACCUGGU [hsa-miR-370]", "TARGET SYSTEM": "MCF10A", "READOUT NUMBER": 12.5}
{"SEQUENCE RECORD": "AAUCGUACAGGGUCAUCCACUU [hsa-miR-487b]", "TARGET SYSTEM": "MCF10A", "READOUT NUMBER": -10.7}
{"SEQUENCE RECORD": "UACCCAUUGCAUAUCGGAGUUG [hsa-miR-660-5p]", "TARGET SYSTEM": "MCF10A", "READOUT NUMBER": 44.9}
{"SEQUENCE RECORD": "CAAUCACUAACUCCACUGCCAU [hsa-miR-34b-3p]", "TARGET SYSTEM": "MCF10A", "READOUT NUMBER": -6.72}
{"SEQUENCE RECORD": "GUGGGGCCAGGCGGUGG [hsa-miR-1227-5p]", "TARGET SYSTEM": "MCF10A", "READOUT NUMBER": -31}
{"SEQUENCE RECORD": "CACAUAUGAAGUGAGCCAGCAC [hsa-miR-5580-3p]", "TARGET SYSTEM": "MCF10A", "READOUT NUMBER": -6.62}
{"SEQUENCE RECORD": "AGGUUGCCUGUGAGGUGUUCA [hsa-miR-656-5p]", "TARGET SYSTEM": "MCF10A", "READOUT NUMBER": 10.7}
{"SEQUENCE RECORD": "UGGGGGCUGGAUGGGGUAGAGU [hsa-miR-6846-5p]", "TARGET SYSTEM": "MCF10A", "READOUT NUMBER": 7.84}
{"SEQUENCE RECORD": "CUGACUGUUGCCGUCCUCCAG [hsa-miR-943]", "TARGET SYSTEM": "MCF10A", "READOUT NUMBER": -0.183}
{"SEQUENCE RECORD": "AGGGGGCGGGCUCCGGCG [hsa-miR-4488]", "TARGET SYSTEM": "MCF10A", "READOUT NUMBER": -5.44}
{"SEQUENCE RECORD": "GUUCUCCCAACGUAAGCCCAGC [hsa-miR-629-3p]", "TARGET SYSTEM": "MCF10A", "READOUT NUMBER": -34.6}
{"SEQUENCE RECORD": "GGGCGACAAAGCAAGACUCUUUCUU [hsa-miR-1273a]", "TARGET SYSTEM": "MCF10A", "READOUT NUMBER": 6.41}
{"SEQUENCE RECORD": "UAUGGCACUGGUAGAAUUCACU [hsa-miR-183-5p]", "TARGET SYSTEM": "MCF10A", "READOUT NUMBER": 81}
{"SEQUENCE RECORD": "UAAGGAGGGGGAUGAGGGG [hsa-miR-6891-5p]", "TARGET SYSTEM": "MCF10A", "READOUT NUMBER": -7.18}
{"SEQUENCE RECORD": "UUCAAGUAAUUCAGGUG [hsa-miR-1297]", "TARGET SYSTEM": "MCF10A", "READOUT NUMBER": -17.3}
{"SEQUENCE RECORD": "GGUGGGCUUCCCGGAGGG [hsa-miR-4417]", "TARGET SYSTEM": "MCF10A", "READOUT NUMBER": -24.2}
{"SEQUENCE RECORD": "GGCUUUCUAGUCUCAGCUCUCC [hsa-miR-3160-5p]", "TARGET SYSTEM": "MCF10A", "READOUT NUMBER": -16.4}
